assay_name: Relative inhibition index (RI) was determined as the % recovery / (rate of inhibition) and is expressed relative to Compound 3
Type: functional
Please mark rule met if the recorded RI is equal to or greater than 1, and rule not met if it falls below.

molecule=COCC[C@H]1CC2CN3CCc4c([nH]c5ccccc45)[C@](C(=O)OCCNC(C)=O)(C2)[C@H]13 category_label="rule met"
molecule=COC(=O)[C@@]12CC3C[C@H](CCO)[C@@H]1N(CCc1c2[nH]c2ccccc12)C3 category_label="rule met"
molecule=COC(=O)[C@@]12CC3C[C@H](CCN(C)C)[C@@H]1N(CCc1c2[nH]c2ccccc12)C3 category_label="rule not met"
molecule=COCC[C@H]1CC2CN3CCc4c([nH]c5ccccc45)[C@](C(=O)OCCN(C)C)(C2)[C@H]13 category_label="rule not met"
molecule=CNCC[C@H]1CC2CN3CCc4c([nH]c5ccccc45)[C@](C(=O)OC)(C2)[C@H]13 category_label="rule met"

Is reported RI greater than or equal to 1 here: `COCC[C@H]1CC2CN3CCc4c([nH]c5ccccc45)[C@](C(=O)NCCO)(C2)[C@H]13`
rule met

Is it the case that COCCC1C2CN3CCc4c([nH]c5ccccc45)[C@](C(=O)OC)(C2)[C@H]13 (stereo partly drawn) has RI reaching or exceeding 1?
rule met

Kindly determine if RI recorded for `COCC[C@H]1CC2CN3CCc4c([nH]c5ccccc45)[C@](C(=O)NCCN(C)C)(C2)[C@H]13` is above or exactly 1.
rule met

Attribution: ChEMBL document CHEMBL1145812
